# PROTOCOL: Rat microsome stability
# Type: in vitro ADME
# EXPERIMENTAL PARAMETERS: 1 μM, rat liver microsomes
Hi there, I'd appreciate the recorded Microsome stability % metabolized (40 min incubation 37°) for every entry that follows.
Lab book: enter the figure in %, no units written.

Sample N=c1nc(N)c(-c2cccc(Cl)c2Cl)nn1CC(F)(F)F ; Microsome stability % metabolized (40 min incubation 37°) observed: 0.5

Microsome stability % metabolized (40 min incubation 37°) reading for Nc1nnc(-c2sc(Cl)c(Cl)c2Cl)c(N)n1 : 0.0

Looking up Nc1nnc(-c2cc(C(F)(F)F)cc(C(F)(F)F)c2)c(N)n1 , I found its Microsome stability % metabolized (40 min incubation 37°) recorded as 0.0

Record summary for Cn1nc(-c2cc(C(F)(F)F)cc(C(F)(F)F)c2)c(N)nc1=N : reported Microsome stability % metabolized (40 min incubation 37°) = 0.0

---

Task for the reader: assign each of the following molecules its reported inhibition at 10 µM.
# TEST SYSTEM: hERG (Homo sapiens, UniProt Q12809)
# Sequence (Q12809 whole entry): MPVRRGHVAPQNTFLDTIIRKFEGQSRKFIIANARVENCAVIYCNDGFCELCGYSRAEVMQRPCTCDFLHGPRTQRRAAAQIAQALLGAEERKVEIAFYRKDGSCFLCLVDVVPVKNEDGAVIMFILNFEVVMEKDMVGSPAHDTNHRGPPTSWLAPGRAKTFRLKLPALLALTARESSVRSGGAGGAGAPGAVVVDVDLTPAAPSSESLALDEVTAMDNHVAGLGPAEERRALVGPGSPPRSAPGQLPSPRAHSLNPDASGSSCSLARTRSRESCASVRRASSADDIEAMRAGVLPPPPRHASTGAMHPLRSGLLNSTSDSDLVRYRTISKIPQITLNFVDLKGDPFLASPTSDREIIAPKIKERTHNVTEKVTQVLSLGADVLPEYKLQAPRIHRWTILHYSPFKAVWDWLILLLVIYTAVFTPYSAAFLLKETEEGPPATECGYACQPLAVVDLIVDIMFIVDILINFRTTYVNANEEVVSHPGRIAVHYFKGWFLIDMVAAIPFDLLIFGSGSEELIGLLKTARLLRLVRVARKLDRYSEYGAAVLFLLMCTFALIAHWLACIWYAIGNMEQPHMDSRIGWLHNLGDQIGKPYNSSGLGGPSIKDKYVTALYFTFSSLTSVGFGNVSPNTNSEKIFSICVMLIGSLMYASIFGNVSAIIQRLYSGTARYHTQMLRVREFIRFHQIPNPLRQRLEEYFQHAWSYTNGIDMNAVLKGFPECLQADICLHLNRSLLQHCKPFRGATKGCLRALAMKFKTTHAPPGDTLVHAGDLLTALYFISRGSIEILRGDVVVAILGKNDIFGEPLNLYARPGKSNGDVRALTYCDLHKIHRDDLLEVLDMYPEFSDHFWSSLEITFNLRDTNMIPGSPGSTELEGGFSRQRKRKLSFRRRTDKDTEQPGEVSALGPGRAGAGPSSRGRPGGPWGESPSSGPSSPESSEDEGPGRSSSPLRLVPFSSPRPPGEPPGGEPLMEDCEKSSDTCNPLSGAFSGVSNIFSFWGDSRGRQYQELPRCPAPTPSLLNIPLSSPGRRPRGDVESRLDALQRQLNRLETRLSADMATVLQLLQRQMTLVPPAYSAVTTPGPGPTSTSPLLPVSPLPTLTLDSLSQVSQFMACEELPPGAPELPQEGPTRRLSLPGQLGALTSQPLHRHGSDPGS
# PROTOCOL: hERG: inhibition of binding of [3H]astemizole to HEK-293 cells expressing human recombinant hERG
# EXPERIMENTAL PARAMETERS: human, probe [3H]astemizole

Looking up CCn1nc(-c2cc(C(C)(C)C)cc(C(C)(C)C)c2)c(N)nc1=N , I see its inhibition at 10 µM listed as 10%

Given item Nc1nnc(-c2cccc3c2-c2ccccc2C3)c(N)n1 , the value recorded as its inhibition at 10 µM is 7%

Form field inhibition at 10 µM, entry Nc1ncc(-c2cccc(Cl)c2Cl)c(N)n1 : -3%

What the record says about Nc1nnc(C(c2ccccc2)c2ccccc2)c(N)n1 : inhibition at 10 µM is -2%

The value of inhibition at 10 µM measured for the molecule Nc1nnc(-c2ccc(Oc3ccccc3)cc2)c(N)n1 turned out to be 35%

For this molecule ( Nc1nnc2c3ccccc3c3ccccc3c2n1 ), measured inhibition at 10 µM is 16%

Entry under test: Nc1nnc(-c2cccc(Oc3ccccc3)c2)c(N)n1 . Its inhibition at 10 µM was 9%

response.value for Cn1nc(-c2cc(Cl)sc2Cl)c(N)nc1=N (field: inhibition at 10 µM) = 14%

// Nc1nnc(C(c2ccccc2)C2CCCC2)c(N)n1 (centres unmarked) : inhibition at 10 µM value = 11%

inhibition at 10 µM reading for CCn1nc(-c2ccc3ccccc3c2)c(N)nc1=N : 78%

According to the records, this molecule Cn1nc(-c2cccc3c2CCCC3)c(N)nc1=N displays inhibition at 10 µM of 6%

Entry Nc1cnc(-c2cc(Cl)cc(Cl)c2Cl)c(N)n1 , inhibition at 10 µM reported as 1%

Record Nc1nnc(C2c3ccccc3Oc3ccccc32)c(N)n1 . Reported inhibition at 10 µM: 10%

Summary for this molecule, Cn1nc(-c2cccc(C(F)(F)F)c2Cl)c(N)nc1=N : inhibition at 10 µM is 22%

Looking up Nc1nnc(-c2ccc(Cl)nc2Cl)c(N)n1 , I see its inhibition at 10 µM listed as 9%

Query Nc1nnc(-c2ccccc2OCc2ccccc2)c(N)n1 yields inhibition at 10 µM of 0%

Reported inhibition at 10 µM ( Cn1nc(-c2cc(C(F)(F)F)cc(C(F)(F)F)c2)c(N)nc1=N ) = 23%

---

# TEST SYSTEM: DiHydroFolate Reductase (DHFR) (Rattus norvegicus)
# Construct: from tissue; host or cells: rat liver homogenate supernatant
# Sequence (Q920D2 1-187): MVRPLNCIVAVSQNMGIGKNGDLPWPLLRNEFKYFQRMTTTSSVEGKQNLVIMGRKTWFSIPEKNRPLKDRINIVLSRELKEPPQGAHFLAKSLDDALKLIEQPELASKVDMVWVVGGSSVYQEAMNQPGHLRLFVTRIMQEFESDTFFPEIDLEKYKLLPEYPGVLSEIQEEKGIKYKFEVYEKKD
# PROTOCOL: Inhibition of binding of [3H]methotrexate to rat liver homogenate supernatant
# EXPERIMENTAL PARAMETERS: 125 μM; read-out: [3H]mtx binding (% inhibition @ 125 μM)
Counter-ions that a name gives are not always drawn.
PROPERTY LABEL: inhibition at 125 µM

Per the records, this compound ( N=c1nc(N)c(-c2ccccc2Oc2ccccc2)nn1CC(F)(F)F [CEN-98] ) has inhibition at 125 µM equal to 41%

Field inhibition at 125 µM (entry Cc1ccc(-c2nnc(N)nc2-c2ccc(C)cc2)cc1 [CEN-126] ) reads -12%

So, Cn1nc2c3ccccc3c3ccccc3c2nc1=N [CEN-136] ? Its inhibition at 125 µM was 27%

inhibition at 125 µM measured on CC(C)c1cc(C(C)C)c(-c2nnc(N)nc2N)c(C(C)C)c1 [CEN-180, tosylate] = -2%

---

# TEST SYSTEM: UniProt Q12809
# PROTOCOL: hERG: inhibition of binding of [3H]astemizole to HEK-293 cells expressing human recombinant hERG
# EXPERIMENTAL PARAMETERS: human, probe [3H]astemizole
PROPERTY LABEL: inhibition at 10 µM (%)
Respond numerically; units are % and should not be typed.

inhibition at 10 µM reported for this compound Cc1ccc(-c2nnc(N)nc2-c2ccc(C)cc2)cc1 [CEN-126] : 79

For this compound ( Nc1nnc(-c2ccc3ccccc3c2)c(N)n1 [CEN-73] ), measured inhibition at 10 µM is 3

So, CCn1nc(-c2cccs2)c(N)nc1=N [CEN-62] ? Its inhibition at 10 µM was -13

---

# TEST SYSTEM: DiHydroFolate Reductase (DHFR) (Rattus norvegicus)
# Construct: from tissue; host or cells: rat liver homogenate supernatant
# PROTOCOL: Inhibition of binding of [3H]methotrexate to rat liver homogenate supernatant
# EXPERIMENTAL PARAMETERS: 125 μM; read-out: [3H]mtx binding (% inhibition @ 125 μM)
PROPERTY LABEL: inhibition at 125 µM (%)
Please reply with the bare figure in % and do not write the unit itself.

Value sought: inhibition at 125 µM, system DiHydroFolate Reductase (DHFR) (Rattus norvegicus), item Nc1nnc(-c2cccs2)c(N)n1 . Result: 44

Lab note: compound Nc1nnc(C2c3ccccc3Oc3ccccc32)c(N)n1 tested on DiHydroFolate Reductase (DHFR) (Rattus norvegicus); recorded inhibition at 125 µM was 6

inhibition at 125 µM of Nc1nnc(C(c2ccccc2)C2CCCC2)c(N)n1 (centres unmarked) , assay on DiHydroFolate Reductase (DHFR) (Rattus norvegicus), is 13

Log: DiHydroFolate Reductase (DHFR) (Rattus norvegicus), compound Nc1nnc(-c2c3ccccc3cc3ccccc23)c(N)n1 , inhibition at 125 µM = -7

Case Nc1nnc(-c2cc3ccccc3s2)c(N)n1 , DiHydroFolate Reductase (DHFR) (Rattus norvegicus), inhibition at 125 µM recorded as 65

// assay DiHydroFolate Reductase (DHFR) (Rattus norvegicus), entry Nc1nnc(-c2ccc(-c3ccccc3)o2)c(N)n1 , inhibition at 125 µM value = 48

Entry Nc1nnc(-c2ccc(Oc3ccccc3)cc2)c(N)n1 , DiHydroFolate Reductase (DHFR) (Rattus norvegicus) data, inhibition at 125 µM value: 4

Bench note, DiHydroFolate Reductase (DHFR) (Rattus norvegicus): entry Nc1nnc(-c2ccccc2OC(F)(F)C(F)F)c(N)n1 , its inhibition at 125 µM = 23

# inhibition at 125 µM measured on DiHydroFolate Reductase (DHFR) (Rattus norvegicus) for item Nc1nnc(-c2c(Cl)cccc2Cl)c(N)n1 = 23

Measured on DiHydroFolate Reductase (DHFR) (Rattus norvegicus), Nc1nnc(-c2ccc(OCc3ccccc3)cc2)c(N)n1 has a documented inhibition at 125 µM of 94

Lab entry: DiHydroFolate Reductase (DHFR) (Rattus norvegicus) assay, compound Nc1nnc(-c2cccc(OCc3ccccc3)c2)c(N)n1 , inhibition at 125 µM = 86

Entry Nc1nnc(-c2cccc(Br)c2)c(N)n1 ; assay system DiHydroFolate Reductase (DHFR) (Rattus norvegicus); inhibition at 125 µM recorded at 66

Bench note, DiHydroFolate Reductase (DHFR) (Rattus norvegicus): Cn1nc(-c2ccc3c(c2)OC(F)(F)O3)c(N)nc1=N , inhibition at 125 µM reads -2

Here Nc1nnc(-c2cc(Br)c(Br)o2)c(N)n1 was tested on DiHydroFolate Reductase (DHFR) (Rattus norvegicus), and its inhibition at 125 µM came to 92

Tested on DiHydroFolate Reductase (DHFR) (Rattus norvegicus), the item COc1cc(-c2nnc(N)nc2N)cc(OC)c1OC showed inhibition at 125 µM equal to 6

The reported inhibition at 125 µM value, DiHydroFolate Reductase (DHFR) (Rattus norvegicus), for Nc1nnc(-c2ccc(Cl)s2)c(N)n1 reads 67

Form: item COc1ccc2cc(OC)c(-c3nnc(N)nc3N)cc2c1 ; test system DiHydroFolate Reductase (DHFR) (Rattus norvegicus); inhibition at 125 µM: 27

The compound Nc1nnc(-c2cccc3ccccc23)c(N)n1 on DiHydroFolate Reductase (DHFR) (Rattus norvegicus): inhibition at 125 µM was 101

# value of inhibition at 125 µM, DiHydroFolate Reductase (DHFR) (Rattus norvegicus), item CCOc1ccc2ccccc2c1-c1nnc(N)nc1N = -23

// inhibition at 125 µM (DiHydroFolate Reductase (DHFR) (Rattus norvegicus)) for Nc1cnc(-c2cc(Cl)cc(Cl)c2Cl)c(N)n1 = -5

Kindly note: DiHydroFolate Reductase (DHFR) (Rattus norvegicus), Nc1nnc(-c2sc3ccccc3c2Cl)c(N)n1 , inhibition at 125 µM value reported: 46

Entry Nc1nnc(-c2cc(Cl)sc2Cl)c(N)n1 : inhibition at 125 µM on DiHydroFolate Reductase (DHFR) (Rattus norvegicus) = 54

Query Nc1nnc(-c2cc(OCC(F)(F)F)ccc2OCC(F)(F)F)c(N)n1 on DiHydroFolate Reductase (DHFR) (Rattus norvegicus); inhibition at 125 µM returned: 3

Hey, DiHydroFolate Reductase (DHFR) (Rattus norvegicus) data for COc1ccc(-c2nnc(N)nc2-c2ccc(OC)cc2)cc1 : inhibition at 125 µM came out at -24

Let me check: Nc1nnc(-c2cc(C(F)(F)F)ccc2Cl)c(N)n1 , system DiHydroFolate Reductase (DHFR) (Rattus norvegicus), measured inhibition at 125 µM is 95

Value sought: inhibition at 125 µM, system DiHydroFolate Reductase (DHFR) (Rattus norvegicus), item Cn1nc(-c2ccccc2Oc2ccccc2)c(N)nc1=N . Result: 86

// compound Nc1nnc(-c2ccc3c(c2)OCO3)c(N)n1 , assay DiHydroFolate Reductase (DHFR) (Rattus norvegicus), inhibition at 125 µM value: 47

Form field, inhibition at 125 µM with DiHydroFolate Reductase (DHFR) (Rattus norvegicus), item Cn1nc(-c2cccc(-c3ccccc3)c2)c(N)nc1=N : -7

Considering CCn1nc(-c2cccc3ccccc23)c(N)nc1=N , its inhibition at 125 µM with DiHydroFolate Reductase (DHFR) (Rattus norvegicus) was recorded as -1

# Nc1nnc(C2(c3ccc(Cl)cc3)CCCC2)c(N)n1 with DiHydroFolate Reductase (DHFR) (Rattus norvegicus): inhibition at 125 µM is 38

inhibition at 125 µM of Nc1cnc(-c2cccc3c2OC(F)(F)O3)c(N)n1 , assay on DiHydroFolate Reductase (DHFR) (Rattus norvegicus), is 101

// compound Nc1nnc(-c2cc3ccccc3oc2=O)c(N)n1 , assay DiHydroFolate Reductase (DHFR) (Rattus norvegicus), inhibition at 125 µM value: 17

Result for CCn1nc(-c2cc(C(C)(C)C)cc(C(C)(C)C)c2)c(N)nc1=N , tested on DiHydroFolate Reductase (DHFR) (Rattus norvegicus), inhibition at 125 µM: 2

Entry Nc1nnc(C2(c3ccc(Cl)cc3)CCCCC2)c(N)n1 under DiHydroFolate Reductase (DHFR) (Rattus norvegicus) had inhibition at 125 µM of 39

The recorded inhibition at 125 µM with DiHydroFolate Reductase (DHFR) (Rattus norvegicus) for Nc1nnc(-c2cccc3c2OC(F)(F)O3)c(N)n1 was 66
